Ref: patent US5789434A

# maps each entry to its inhibition at 5 µM
- TARGET_OF_ASSAY: MMP-3 (Homo sapiens)
- Construct: Truncated Prostromelysin-257 was expressed in a soluble form in E.coli; made in house; host or cells: E. coli
- Sequence (P08254 100-274 limits assumed): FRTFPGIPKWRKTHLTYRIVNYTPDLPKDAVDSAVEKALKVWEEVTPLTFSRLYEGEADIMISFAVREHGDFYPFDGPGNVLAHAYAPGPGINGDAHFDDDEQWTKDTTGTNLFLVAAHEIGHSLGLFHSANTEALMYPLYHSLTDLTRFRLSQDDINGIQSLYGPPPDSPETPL
- TEST_DESCRIPTION: Primary Thiopeptilide MMP-3 Inhibition Assay
- Assay type: biochemical
- STUDY_CONDITIONS: at 5 μM; read-out: MMP-3 Thiopep. % inhibition
State just the number; it will be interpreted in %.

COMPOUND | UNIT_SPEC | inhibition at 5 µM
O=C(CC(CCCc1ccccc1)C(=O)O)c1ccc(-c2ccc(Cl)cc2Cl)cc1 (stereo not drawn) [Example 77] | % | 24
C=C(CC(=O)c1ccc(-c2ccc(Cl)cc2)cc1)C(=O)O [Example 23, reference compound] | % | 24
CC(C)(C)c1ccc(-c2ccc(C(=O)CC(CCCc3ccccc3)C(=O)O)cc2)cc1 (stereo not drawn) [Example 48] | % | 53

Fill blank: measured inhibition at 5 µM of the compound CC(C)CC(CC(=O)c1ccc(-c2ccccc2)cc1)C(=O)O (stereo not drawn) [Example 13] is ____.
27

Fill blank: measured inhibition at 5 µM of the compound CC(C)(CC(=O)c1ccc(-c2ccc(Cl)cc2)cc1)C(=O)O [Example 282] is ____.
2

Fill blank: measured inhibition at 5 µM of the compound C=C(CC(=O)O)C(=O)c1ccc(-c2ccc(Cl)cc2)cc1 [Example 32, reference compound] is ____.
58

Fill blank: measured inhibition at 5 µM of the compound O=C(O)/C=C/C(=O)c1ccc(-c2ccc(Cl)cc2)cc1 [Example 29, reference compound] is ____.
28

Fill blank: measured inhibition at 5 µM of the compound O=C(c1ccc(-c2ccc(Cl)cc2)cc1)[C@H]1CCC[C@H]1C(=O)O (relative stereo) [Example 288] is ____.
40

Fill blank: measured inhibition at 5 µM of the compound CC(C)(CCC(=O)c1ccc(-c2ccc(Cl)cc2)cc1)C(=O)O [Example 337] is ____.
20

Fill blank: measured inhibition at 5 µM of the compound CC(=O)c1ccc(-c2ccc(Cl)cc2)cc1 [Example 37] is ____.
9

Fill blank: measured inhibition at 5 µM of the compound CC(C)CC(CC(=O)c1ccc(-c2ccc(F)cc2F)cc1)C(=O)O (stereo not drawn) [Example 20] is ____.
32

Fill blank: measured inhibition at 5 µM of the compound O=Cc1ccccc1-c1ccc(C(=O)CC(CCCc2ccccc2)C(=O)O)cc1 (stereo not drawn) [Example 82] is ____.
23
